Assay: in vitro
Details: human
Experimental endpoint: CC50

What does the data say about its CC50? Entry: Cc1ccnc2c1NC(=O)c1cccnc1N2C1CC1 [NVP, nevirapine] > 50 µM

###

Biological target: HIV-1 reverse transcriptase (RT) (Human immunodeficiency virus type 1 group M subtype B, UniProt P03366)
Construct: recombinant purified HIV-1 reverse transcriptase (RT) activity
Experiment: biochemical
Experimental endpoint: IC50 (µM)
Supply the numeric figure in µM, leaving out any unit text.

Request the reported IC50 associated with Clc1ccccc1-c1nc2ccccn2c1NC1CCCCC1 2.55

###

The entries below come with measured EC50 values attached.
System: Y188L RT mutant VSV-G pseudotyped HIV-1 vector
Assay type: cell-based
Conditions: read-out: Antiviral EC50 Y188L

Answered examples (2):
# Record smiles, EC50
rows = [
    ("Clc1ccccc1-c1nc2ccccn2c1NC1CCCCC1", "> 20 µM"),
    ("Cc1ccnc2c1NC(=O)c1cccnc1N2C1CC1", "> 20 µM"),
]

Continue with the next molecule.
For Cc1cn([C@H]2C[C@H](N=[N+]=[N-])[C@@H](CO)O2)c(=O)[nH]c1=O , what is its reported EC50? 0.011 µM
